testTarget: IRAK4 (Homo sapiens (Human))
Sequence (Q9NWZ3 whole entry): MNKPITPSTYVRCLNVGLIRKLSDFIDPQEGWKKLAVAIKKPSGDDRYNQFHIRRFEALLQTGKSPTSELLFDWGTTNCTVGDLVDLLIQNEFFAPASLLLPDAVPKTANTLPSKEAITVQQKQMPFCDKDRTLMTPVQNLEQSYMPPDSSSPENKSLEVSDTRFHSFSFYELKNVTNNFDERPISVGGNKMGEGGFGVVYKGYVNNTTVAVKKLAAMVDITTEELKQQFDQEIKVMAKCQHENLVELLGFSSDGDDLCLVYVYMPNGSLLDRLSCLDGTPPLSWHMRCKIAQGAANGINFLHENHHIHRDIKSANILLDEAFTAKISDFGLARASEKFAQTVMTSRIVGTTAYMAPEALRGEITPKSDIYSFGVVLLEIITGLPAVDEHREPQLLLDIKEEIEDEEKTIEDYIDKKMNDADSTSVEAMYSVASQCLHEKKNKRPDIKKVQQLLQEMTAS
protocol: IRAK4 Kinase Assay
Format: biochemical
conditions: IMAP fluorescence polarization, 0.5 nM GST tagged IRAK4, 100 μM ATP, 30 minutes at 25° C.; read-out: IRAK4 IC50
Where a name gives a salt, the structure may show the parent alone.
readoutKind: pIC50
Schema: pIC50 number; meaning minus log10 of the concentration expressed in molar units.

• O=C(Nc1ccsc1C(F)(F)F)c1cnn2ccc(N3CCCNCC3)nc12 [Example 153, trifluoroacetate] = 5.99
• O=C(Nc1cscc1Cl)c1cnn2ccc(N3C[C@H]4CC[C@@H]3CN4)nc12 (single isomer, unassigned) [Example 171, trifluoroacetate] = 6.42
• Cn1cc(NC(=O)c2cnn3ccc(N[C@@H]4CNC[C@@H](F)C4)nc23)c(C(F)(F)F)n1 = 7.44
• Cn1cc(NC(=O)c2cnn3ccc(N4CCCNCC4)nc23)c(Br)n1 [Example 137, trifluoroacetate] = 7.14
• O=C(Nc1cn(C(F)F)nc1C(F)(F)F)c1cnn2ccc(N3CC4CCC3CN4)nc12 (stereo not drawn) [Example 67, trifluoroacetate] = 7.13
• Cn1cc(NC(=O)c2cnn3ccc(N4C5CCC6NC5CCC64)nc23)c(C(F)(F)F)n1 [Example 102, trifluoroacetate] = 6.79
• Cn1cc(NC(=O)c2cnn3ccc(N[C@@H]4CCCC[C@@H]4N4CCOCC4)nc23)c(C(F)(F)F)n1 = 7.72
• N[C@H]1CCCC[C@H]1Nc1ccn2ncc(C(=O)Nc3ccsc3Br)c2n1 [Example 129, trifluoroacetate] = 8.70
• CC(C)(C)n1cc(NC(=O)c2cnn3ccc(N4CCNCC5(CC5)C4)nc23)c(C(F)(F)F)n1 [Example 47, trifluoroacetate] = 7.31
• Cn1cc(NC(=O)c2cnn3ccc(N4CCC[C@H](O)C4)nc23)c(C(F)(F)F)n1 = 8.70

Using IRAK4 (Homo sapiens (Human)) as the test system, report measured pIC50 of Cn1cc(NC(=O)c2cnn3ccc(N4[C@@H]5CC[C@H]4[C@@H]4CC[C@H]5N4)nc23)c(C(F)(F)F)n1 .
6.94

# return pIC50 for Cn1cc(NC(=O)c2cnn3ccc(N[C@H]4CNCC[C@H]4F)nc23)c(C(F)(F)F)n1 (single isomer, unassigned) , test system: IRAK4 (Homo sapiens (Human))
7.33

---

testTarget: UniProt:Q9NWZ3
protocol: IRAK4 Kinase Assay
Assay type: biochemical
conditions: IMAP fluorescence polarization, 0.5 nM GST tagged IRAK4, 100 μM ATP, 30 minutes at 25° C.; read-out: IRAK4 IC50
Where a name gives a salt, the structure may show the parent alone.
Assign labels as follows, please: criterion met for IC50 below 30 nM; criterion not met for IC50 equal to or exceeding 30 nM.

* O=C(Nc1cn(CC(F)F)nc1C(F)(F)F)c1cnn2ccc(N3CCNCC3)nc12 [Example 62, trifluoroacetate] | criterion met
* O=C(Nc1ccsc1Br)c1cnn2ccc(N[C@@H]3CCCC[C@@H]3O)nc12 | criterion not met
* N#Cc1cscc1NC(=O)c1cnn2ccc(N[C@@H]3CCCC(F)(F)[C@@H]3N)nc12 | criterion not met
* Cn1cc(NC(=O)c2cnn3ccc(N4CCCNCC4)nc23)c(C#N)n1 [Example 125, trifluoroacetate] | criterion not met
* Cn1cc(NC(=O)c2cnn3ccc(N4C[C@H]5CC[C@@H]4CN5)nc23)c(Cl)n1 (single isomer, unassigned) | criterion met
* Cn1cc(NC(=O)c2cnn3ccc(N4CC5CNC(COC5)C4)nc23)c(C(F)(F)F)n1 (centres unmarked) [Example 80, trifluoroacetate] | criterion met

# check: IC50 < 30 nM for Cn1cc(NC(=O)c2cnn3ccc(NC4CCCCC4)nc23)cn1 [Example 3, trifluoroacetate]
criterion not met

Does the reported IC50 of Cn1cc(NC(=O)c2cnn3ccc(N[C@H]4CCC(F)(F)C[C@H]4N)nc23)c(C(F)F)n1 (single isomer, unassigned) stay below 30 nM?
criterion met

Where do these numbers come from? They come from patent US10329294B2.
